Test system: biotinyl-Met-oxazolone
Experiment: self-aminoacylation, catalytic enhancement (BMO) (fold over background); higher = more active; k-Seq, kA / k0A0; sequences stand for … in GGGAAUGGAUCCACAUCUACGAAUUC…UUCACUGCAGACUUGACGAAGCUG
This sample holds only a part of the variants without activity.
Classify as follows. Reported self-aminoacylation greater than or equal to 0.8: 1. Reported self-aminoacylation below: 0.

Consider the worked cases shown below.
INSERT INTO assay_data (residues, system_tested, assigned_label) VALUES
  ('AAACACCUAGGUCAUCGGGUG [Fam2.2 aminoacylation ribozyme variant]', 'biotinyl-Met-oxazolone', 1),
  ('CCACACCUCAAGCAAUUGGUC [Fam1B.1 aminoacylation ribozyme variant]', 'biotinyl-Met-oxazolone', 0),
  ('CUACUUCAAACAAUCAGGCUG [Fam1A.1 aminoacylation ribozyme variant]', 'biotinyl-Met-oxazolone', 0),
  ('CCACAGUUCAAGCAAUCGUUC [Fam1B.1 aminoacylation ribozyme variant]', 'biotinyl-Met-oxazolone', 0),
  ('CAACACUUCAAGCAAUCGGGC [Fam1B.1 aminoacylation ribozyme variant]', 'biotinyl-Met-oxazolone', 1);

Dear colleague, could you confirm whether CUACUUCAAACAAUCGCUCUU [Fam1A.1 aminoacylation ribozyme variant] has self-aminoacylation at or above 0.8? 0

Dear colleague, could you confirm whether CCACUUCAAACAAUCGGCCUG [Fam1A.1 aminoacylation ribozyme variant] has self-aminoacylation at or above 0.8? 1

Dear colleague, could you confirm whether CUACUUCAACCCAUCGGUCUG [Fam1A.1 aminoacylation ribozyme variant] has self-aminoacylation at or above 0.8? 0

Dear colleague, could you confirm whether AUUAUCCUGGUCAUCGAGAGA [Fam2.1 aminoacylation ribozyme variant] has self-aminoacylation at or above 0.8? 1
